Molecular target: Adenine DNA glycosylase (Homo sapiens)
Sequence (whole entry): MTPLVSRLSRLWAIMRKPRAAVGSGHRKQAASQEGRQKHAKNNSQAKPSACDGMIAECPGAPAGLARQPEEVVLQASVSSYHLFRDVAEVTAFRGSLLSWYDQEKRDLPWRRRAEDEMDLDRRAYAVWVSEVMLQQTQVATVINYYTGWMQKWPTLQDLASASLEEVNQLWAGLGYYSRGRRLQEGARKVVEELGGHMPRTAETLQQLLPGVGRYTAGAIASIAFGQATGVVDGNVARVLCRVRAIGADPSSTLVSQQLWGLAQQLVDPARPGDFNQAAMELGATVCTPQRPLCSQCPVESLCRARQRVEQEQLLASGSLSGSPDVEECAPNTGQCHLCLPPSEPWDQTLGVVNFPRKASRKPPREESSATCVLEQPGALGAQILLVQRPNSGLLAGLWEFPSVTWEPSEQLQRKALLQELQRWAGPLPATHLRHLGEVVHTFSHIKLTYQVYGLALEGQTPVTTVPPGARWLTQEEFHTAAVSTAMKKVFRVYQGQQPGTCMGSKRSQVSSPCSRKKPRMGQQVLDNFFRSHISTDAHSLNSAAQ
Conditions: Compound Concentration 10.0 uM, Hit No
Description: Inhibition of MUTYH by quantifying inhibition of MUTYH-mediated cleavage and dissociation of quenched duplex DNA oligonucleotides, measured as fluorescence at 594 nm. To generate a functional strand incision and increase turn-over this assay is coupled to APE1.
test readout: inhibition

Below, 4 compounds whose answers are already recorded.
• FC(F)(F)c1cccc(-c2noc(-c3cc(-c4ccccc4)c(C(F)(F)F)s3)n2)c1 = 1.81%
• COc1cc(C(C)C)c(Oc2cnc(NC(CO)CO)nc2N)cc1I = 2%
• CCCNS(=O)(=O)Nc1ncnc(OCCOc2ncc(Br)cn2)c1-c1ccc(Br)cc1 = 26.1%
• COc1ccc(OC)c(-c2ccc(NC(=O)c3ccncc3F)cc2)c1 = -1.87%

Now look at this entry.
Asked: Find the measured inhibition: item N#CN1CC[C@@H](C(=O)Nc2nc3c(s2)CN(C(=O)CN=[N+]=[N-])CC3)C1 , target or system Adenine DNA glycosylase (Homo sapiens).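 Further: human MUTYH activity read as 594 nm fluorescence from cleavage and release of a quenched DNA duplex, coupled with APE1 for strand incision, lower signal meaning inhibition.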
Given back: -2.56%

* * *

Measured inhibition by item
target: Endonuclease 8-like 2 (Homo sapiens) (UniProt Q969S2); details: Compound Concentration 1.0 uM, Hit No;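 further: fluorescence at 594 nm reports NEIL2 cutting and release of a quenched double-stranded DNA oligo substrate, reduced signal read as inhibition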
Sequence (Q969S2 whole entry): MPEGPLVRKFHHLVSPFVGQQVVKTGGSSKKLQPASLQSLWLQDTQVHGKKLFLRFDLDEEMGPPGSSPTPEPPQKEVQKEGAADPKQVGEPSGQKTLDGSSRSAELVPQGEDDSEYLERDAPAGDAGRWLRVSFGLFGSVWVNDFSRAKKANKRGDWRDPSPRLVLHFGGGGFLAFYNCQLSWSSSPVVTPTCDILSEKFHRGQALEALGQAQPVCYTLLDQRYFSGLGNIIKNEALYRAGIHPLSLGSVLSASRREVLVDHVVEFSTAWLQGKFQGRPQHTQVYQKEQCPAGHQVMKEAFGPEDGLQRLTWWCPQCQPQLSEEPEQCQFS
Description: Inhibition of NEIL2 by quantifying inhibition of NEIL2-mediated cleavage and dissociation of quenched duplex DNA oligonucleotides, measured as fluorescence at 594 nm.
Give the quantity in %, number only.

Worked examples, 8 compounds total:
* Cc1cc(F)c(C(=O)Nc2cccc(-c3nncn3C(C)C)n2)cc1-n1cnc(C2CC2)c1 | 2.93
* Nc1cnc(N2CCc3cc(S(=O)(=O)Nc4c(F)cc(Cl)cc4F)cc(N4CCCC4=O)c32)nc1 | -0.999
* O=C(NOCC1CC1)c1ccc(F)c(F)c1Nc1ccc(I)cc1Cl | -7.84
* O=C(Cc1ccccc1)Nc1nnc(N2CC[C@@H]3[C@H]2CN3c2cccnn2)s1 | -8.65
* CN(C)C(=O)Cn1cc(-c2nc([C@@](C)(c3ccc(-c4cnc(N)nc4)cc3)C3CC3)no2)cn1 | -2.79
* COc1cnccc1Nc1nc(-c2nn(Cc3c(F)cc(OCCO)cc3F)c3ccccc23)ncc1OC | -7.84
* C[C@H](NC(=O)c1cn(C2(C#N)CC2)cn1)C(=O)Nc1nc(-c2cccc(-c3ccn(C)n3)c2)cs1 | -9.67
* CCC(=O)N1CCN(c2ccc(-n3c(=O)ccc4cnc5ccc(-c6cnc7ccccc7c6)cc5c43)cc2C(F)(F)F)CC1 | -7.57

Asked: Give its inhibition value. Item: CCCOc1ccc([C@@H]2[C@@H](C(=O)O)[C@H](c3ccc4c(c3)OCO4)CN2CC(=O)Nc2c(CC)cccc2CC)cc1
Given back: 9.71

Asked: What do you have for O=C(O)[C@H]1[C@H](Cn2nnc3ccccc3c2=O)CC[C@@H]1C(=O)c1ccc(OCCC2CCOCC2)cc1 ?
Given back: -9.93
